Molecular target: T1, Human IL-11 (human, UniProt P20809 22-199); also: test concentration or dose not given here
T1 sequence: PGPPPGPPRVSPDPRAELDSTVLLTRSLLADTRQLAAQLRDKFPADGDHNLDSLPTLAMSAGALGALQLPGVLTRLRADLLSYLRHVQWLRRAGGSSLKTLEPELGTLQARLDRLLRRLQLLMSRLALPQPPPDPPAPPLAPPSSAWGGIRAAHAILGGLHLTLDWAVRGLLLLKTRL
Assay: cell-based or functional assay
measured attribute: MMP2 production, Experiment 2 (human atrial fibroblasts + TGFB1) (ng/mL)
The reply should be a number in ng/mL, with the unit left off.

Example binders with recorded MMP2 production, Experiment 2 (human atrial fibroblasts + TGFB1):
YU112-H01 (antibody) QVQLVESGGGVVQPGRSLRLSCAASGFTFGSYGMHWVRQAPGKGLEWVAVISYDGSNKYYADSVKGRFTISRDNSKNTLYLQMNSLRAEDTAVYYCAKGSYYFDYWGQGTLVTVSSGSASAPKLEEGEFSEARVETTLTQSPGTLSLSPGERATLSCRASQSVSSSYLAWYQQKPGQAPRLLIYGASSRATGIPDRFSGSGSGTDFTLTISSLQPDDFATYYCQQSYSTPTWTFGQGTKVEIK	47.7
YU100-H01 (antibody, human IgG1, V domains shown, Light chain shuffled human antibody; Only the variable domains are tied to the clone) VH: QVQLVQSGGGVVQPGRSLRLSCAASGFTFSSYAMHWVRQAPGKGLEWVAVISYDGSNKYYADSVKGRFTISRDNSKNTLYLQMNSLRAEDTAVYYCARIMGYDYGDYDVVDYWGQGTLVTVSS VL: QSALTQPRSVSGSPGQSVTISCTGTSSDVGAYNYVSWYQQHPGKAPKLMIYDVSERPSGVPDRFSGSKSGNTASLTISGLQAEDEADYYCCSYAGSYTWVFGGGTKLTVLG	42.2

Below: the item to evaluate.
Query: Look up MMP2 production, Experiment 2 (human atrial fibroblasts + TGFB1): YU100-G09 (antibody) EVQLVESGGGVVQPGRSLRLSCAASGFTFSSYGMHWVRQAPGKGLEWVAVISYDGSNKYYADSVKGRFTISRDNSKNTLYLQMNSLRAEDTAVYYCAKIGATDPLDYWGQGTLVTVSSGSASAPKLEEGEFSEARVQSALTQPRSVSGSPGQSVTISCTGTISDVGGYNYVSWYQQHPGKAPKLMIYDVTKRPSGVPDRFSGSKSGNTASLTISGLQAEDEAGYYCSSYAGSYTWVFGGGTKLTVL
Response: 47.5
